Please respond with reported half-life for every item in the list.
# protocol notes: Half life in rat at 0.5 mg/kg, iv
# Format: ADME, organism-based
# Parameters: dose 0.5 mg/kg, route intravenous
# run parameters: in vivo
Answers are plain numbers, in h.

Recorded results for 3 molecules are shown here.
// half-life value for `CC(C)(C)S(=O)(=O)C[C@H](CC(F)(F)F)N1C(=O)[C@@H](CC(=O)O)O[C@H](c2cccc(Cl)c2)[C@H]1c1ccc(Cl)cc1` : 4

molecule `CC[C@@H](CS(=O)(=O)C(C)(C)C)N1C(=O)[C@@H](CC(=O)O)O[C@H](c2cccc(Cl)c2)[C@H]1c1ccc(Cl)cc1` , half-life observed: 4.1

Value of half-life reported for the molecule `CC(C)[C@@H](CS(=O)(=O)C(C)(C)C)N1C(=O)[C@@H](CC(=O)O)O[C@H](c2cccc(Cl)c2)[C@H]1c1ccc(Cl)cc1` is 6

Now turn to the next molecule.
Lab note: `CC(C)(C)S(=O)(=O)C[C@H](C1CC1)N1C(=O)[C@@H](CC(=O)O)O[C@H](c2cccc(Cl)c2)[C@H]1c1ccc(Cl)cc1` gave half-life of 5.7

###

# protocol notes: Intrinsic clearance in human hepatocytes measured per 10^6 cells
# Format: ADME, cell-based, Hepatocyte
# run parameters: read-out: CLH
parameter: hepatocyte CLint (µL/min/1e6 cells)
Answers are plain numbers, in µL/min/1e6 cells.

Solved cases (4 shown):
Short answer for `CC(C)(C)[C@@H](CS(=O)(=O)C(C)(C)C)N1C(=O)[C@@H](CC(=O)O)O[C@H](c2cccc(Cl)c2)[C@H]1c1ccc(Cl)cc1` : hepatocyte CLint was 2.1

The recorded hepatocyte CLint for `CC(C)(C)S(=O)(=O)C[C@H](C1CC1)N1C(=O)[C@@H](CC(=O)O)O[C@H](c2cccc(Cl)c2)[C@H]1c1ccc(Cl)cc1` is 1

Measured hepatocyte CLint of `CC[C@@H](CS(=O)(=O)N(C)C)N1C(=O)[C@@H](CC(=O)O)O[C@H](c2cccc(Cl)c2)[C@H]1c1ccc(Cl)cc1` : 19

// hepatocyte CLint value for `CC(C)(C)S(=O)(=O)C[C@H](CC(F)(F)F)N1C(=O)[C@@H](CC(=O)O)O[C@H](c2cccc(Cl)c2)[C@H]1c1ccc(Cl)cc1` : 4.7

Read the next record carefully.
The reported value for `CC[C@@H](CN(c1ccc(F)cc1)S(=O)(=O)C1CC1)N1C(=O)[C@@H](CC(=O)O)O[C@H](c2cccc(Cl)c2)[C@H]1c1ccc(Cl)cc1` in terms of hepatocyte CLint is 7

###

# protocol notes: Intrinsic clearance in rat hepatocytes measured per 10^6 cells
# Assay type: ADME, cell-based, Hepatocyte
# run parameters: read-out: CLH
parameter: hepatocyte CLint (µL/min/1e6 cells)
Give bare numbers, in µL/min/1e6 cells.

Memo: `CC(C)(C)S(=O)(=O)C[C@H](C1CC1)N1C(=O)[C@@H](CC(=O)O)O[C@H](c2cccc(Cl)c2)[C@H]1c1ccc(Cl)cc1` , reported hepatocyte CLint: 3

###

# protocol notes: Intrinsic clearance in dog hepatocytes measured per 10^6 cells
# Assay type: ADME, cell-based, Canis lupus familiaris, Hepatocyte
parameter: hepatocyte CLint (µL/min/1e6 cells)
Answers are plain numbers, in µL/min/1e6 cells.

The value of hepatocyte CLint measured for the molecule `CC[C@@H](CS(=O)(=O)C(C)(C)C)N1C(=O)[C@@](C)(CC(=O)O)C[C@H](c2cccc(Cl)c2)[C@H]1c1ccc(Cl)cc1` turned out to be 68

// switching to the query molecule
Input `CC[C@@H](CS(=O)(=O)C(C)(C)C)N1C(=O)[C@@H](CC(=O)O)O[C@H](c2cccc(Cl)c2)[C@H]1c1ccc(Cl)cc1` . Output hepatocyte CLint: 15.5
